Target: T1, human CD40 expressed on cells (human, UniProt P25942 21-277)
T1 construct: also called HEK293A/humanCD40
T1 sequence (P25942 21-277 limits assumed): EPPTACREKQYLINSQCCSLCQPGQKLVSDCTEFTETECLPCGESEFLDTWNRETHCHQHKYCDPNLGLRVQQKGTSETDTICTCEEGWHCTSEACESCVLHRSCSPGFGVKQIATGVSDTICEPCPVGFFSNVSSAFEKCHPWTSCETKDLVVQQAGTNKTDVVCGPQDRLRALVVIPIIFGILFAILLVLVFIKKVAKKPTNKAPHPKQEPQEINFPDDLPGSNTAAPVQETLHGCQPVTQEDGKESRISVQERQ
Test: FACS, HEK293A/humanCD40 cells
Property measured: log10 of EC50 (log10 of the value in µg/mL)
Transform log10 | Measure EC50 | Unit µg/mL

Solved entries (count: 3):
- Binder: "29A10 (mouse monoclonal antibody) (antibody, V domains shown) VH: QVKLEQSGGGLVKPGGSLKLSCAASGFTFSHYYMYWVRQTPEKRLEWVATISDAGSYTYYSDSVKGRFTISRDNAKNNLYLQMSSLKSDDTAMYFCARTYYRGDGGYWFFDVWGAGTAVTVSS VL: DIVITQSTSSLAVSVGEKVTMSCESSQSLLYSSNQKNYLAWYQQKPGQSPKLLIYWASTRESGVPDRFTASGSGTDFTLTISSVKAEDLAVYYCQQYYRSPLTFGAGTKLELK"
  log10 of EC50: -0.69
- Binder: "50F6 (mouse monoclonal antibody) (antibody, V domains shown) VH: QVQLEQSGDDLVKPGASVKLSCKASGYTFTTYWINWIKQRPGQGLEWIGRISPGSGSTHYNEMFKGKATLTVDTSSSTAYIQLSSLSSEDSAVYFCTRNDYWGQGTTLTVSS VL: DIVLTQSPLSLPVSLGDQASISCRSSQSIVNSNGNTYLEWYLQKPGQSPKLLIYKVSNRFSGVPDRFSGSGSGTDFTLKISRVEAEDLGVYYCFQGSHVPLTFGAGTKLELK"
  log10 of EC50: -0.87
- Binder: "7B4 (mouse monoclonal antibody) (antibody, V domains shown) VH: EVQLQESGPGLVKPSQSLSLTCSVTGYSITTNYYWNWIRQFPGNKLEWMGYIKYDGSNNYNPSLKNRISITRDTSKNQFFLKLNSVTTEDTATYYCARLDYWGQGTSVTVSS VL: DIVLTQSPLSLPVSLGDQASISCRSSQSLENSNGNTFLNWFLQKPGQSPQLLIYKVSNRFSGVLDRFSGTGSGTDFTLTISRVEAEDLGVYFCLQVTHVPFTFGSGTKLEIK"
  log10 of EC50: -2.00

Give me log10 of EC50 for each of these binders, listed below.
1. 13A2 (mouse monoclonal antibody) (antibody, V domains shown) VH: EVKLEQSGPGLVKPSQSLSLTCSVTGYSITTNYYWNWIRQFPGNKLEWMGYINYDGSNNYNPSLKNRISITRDTSKNQFFLKLNSVTTEDTATYYCARLDYWGQGTSVTVSS VL: DIVMTQSPLSLPVSLGDQASISCRSSQSLENSNGNTFLNWFLQKPGQSPQLLIYKVSNRFSGVLDRFSGTGSGTDFTLTISRVEAEDLGVYFCLQVTHVPFTFGSGTKLEIK
2. 16A6 (mouse monoclonal antibody) (antibody, V domains shown) VH: EVQLEQSGPGLVKPSQSLSLTCSVTGYSITTNYHWNWIRQFPGNKLEWMGYIKYDGSNNYNPSLKNRISITRDTSKNQFFLKLNSVTTEDTATYYCARLDYWGQGTSVTVSS VL: DIVLTQSTLSLSVSLGDQASISCRSSQSLENSNGNTFLNWFLQKPGQSPQLLIYKVSNRFSGVLDRFSGTGSGTDLTLTISRVEAEDLGVYFCLQVTHVPFTFGSGTKLEIK

1: -1.31; 2: -1.17
